Provenance of the data: ChEMBL document CHEMBL3433997

Target: Glucose transporter (Leishmania mexicana) (UniProt O61059)
Experiment: ST_JUDE_LEISH: Cytotoxicity at 2uM final concentration against transgenic Leishmania Mexicana promastigotes LmGT2 that are glucose transport deficient and complemented with the L. Mexicana glucose transporter 2. Activity is measured by DNA content using SYBR green in vitro
Format: functional
attribute.measured: inhibition (%)
One number for each entry, in %.

Below: 4 compounds and their reported inhibition.
Cc1cc(O)nc(NC#N)n1 :: 2.82
CC1CCCCN1Cc1cccc(-c2c[nH]c3nc(NC4CCCC4)ncc23)c1 (centres undefined) :: 6.08
Cc1cccc2nc(-c3ccc(-c4ccc(CN5CCCCC5)cc4)cc3)[nH]c12 :: 10.2
COc1ccc2nccc(N3CCC(O)(CCNCc4ccc5c(n4)NC(=O)CS5)CC3)c2n1 :: 7.92

Below is a list of compounds. For each, state its recorded inhibition.
1. O=C(Cc1ccc[n+]([O-])c1)Nc1cccc(-c2cccc(-c3nc4cc(F)ccc4[nH]3)c2)c1
2. COc1cccc2cc(C(=O)N[C@@H](CC(C)C)C(=O)N[C@H](/C=N/NC(=O)OC(C)(C)C)CC(=O)OC(C)(C)C)oc12
3. CNCCCNc1ccnc2cc(Cl)ccc12
4. COc1ccc2nccc([C@@H](O)CN3CCC(NC(=O)/C=C/c4ccnc5ccccc45)CC3)c2c1
5. Cc1ccccc1CNc1noc(-c2c(-c3ccccc3)noc2C)n1

[4.13, 3.63, 5.03, -2.64, 6.28]

Go through the items and report each one's inhibition.
1. COc1ccc2ccccc2c1C=NNc1ccnc2cc(Cl)ccc12
2. C=CCn1cc(C2CCN(CCCCNC(=O)c3sc(-c4ccc(C(F)(F)F)cc4)nc3CO)CC2)c2cc(OC)ccc21
3. CCC[C@@H](/C=N/N(C)C(=O)OC(C)(C)C)NC(=O)[C@H](CC(C)C)NC(=O)c1cc2cccc(OC)c2o1
4. c1cc(-c2ccc(CN3CCN(c4ccncc4)CC3)cc2)cc(-c2nc3ccccc3[nH]2)c1

1.17
4.35
0.27
2.1

* * *

Biological target: Solute carrier family 2, facilitated glucose transporter member 1 (Homo sapiens) (UniProt P11166)
Sequence (P11166 whole entry): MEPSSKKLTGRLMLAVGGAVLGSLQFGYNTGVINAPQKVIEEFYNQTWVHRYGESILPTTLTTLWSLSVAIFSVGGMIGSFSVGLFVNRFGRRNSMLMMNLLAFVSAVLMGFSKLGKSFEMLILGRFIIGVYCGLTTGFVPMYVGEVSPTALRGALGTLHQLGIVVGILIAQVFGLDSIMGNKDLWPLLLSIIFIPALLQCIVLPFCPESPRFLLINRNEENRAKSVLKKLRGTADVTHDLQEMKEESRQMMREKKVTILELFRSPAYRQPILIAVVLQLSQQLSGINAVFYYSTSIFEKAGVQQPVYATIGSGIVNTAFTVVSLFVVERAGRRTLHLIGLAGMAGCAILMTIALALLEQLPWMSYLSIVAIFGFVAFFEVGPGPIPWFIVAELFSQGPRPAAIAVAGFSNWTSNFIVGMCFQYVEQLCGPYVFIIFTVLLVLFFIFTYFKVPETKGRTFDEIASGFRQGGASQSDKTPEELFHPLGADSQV
Test: ST_JUDE_LEISH: Cytotoxicity at 2uM final concentration against transgenic Leishmania Mexicana promastigotes LmGLUT1 that are glucose transport deficient and complemented with the human glucose transporter GLUT1. Activity is measured by DNA content using SYBR green in vitro
Type: functional
I'd be grateful if you could share measured inhibition for these entries.
One number for each entry, in %.

Cc1ccc(Nc2nc3cc(N(C)c4ccnc(Nc5cccc(CCS(C)(=O)=O)c5)n4)ccc3n2C)cc1 :: 3.07
COc1nc2c(N3CCN(CCNCc4ccc5c(n4)NC(=O)CS5)CC3)ccnc2cc1F :: 0.45
OC(CNCc1ccccc1OCc1ccccc1)c1cccc(I)c1 (stereo not given) :: 3.99

Batch request: inhibition for each of the following compounds.
1. Cc1ncccc1-c1cccc2c(NC(=O)Nc3ccc4nccc(N5CCN(C)CC5)c4c3)cccc12
2. N#Cc1cccc(-c2ccc(C(=O)Nc3ccc4c(c3)CCN(C3CCC3)CC4)cn2)c1

1. 4.96
2. 7.62

* * *

Biological target: Solute carrier family 2, facilitated glucose transporter member 1 (Homo sapiens)
Experiment: ST_JUDE_LEISH: Cytotoxicity at 2uM final concentration against transgenic Leishmania Mexicana promastigotes LmGLUT1 that are glucose transport deficient and complemented with the human glucose transporter GLUT1. Activity is measured by DNA content using SYBR green in vitro
Format: functional
attribute.measured: inhibition

Field: example entries. Status: answers known.
COc1cccc2c(C)cc(NCc3ccc(Cl)cc3)nc12 :: 4.96%
Cc1cc(CN2CCC(N3CC(c4ccccc4)(c4ccccc4)OC3=O)C2)ccc1O (stereo unspecified) :: 4.14%
Clc1ccc(CNc2nc(NCCc3c[nH]cn3)nc(NC3CCCCC3)n2)cc1 :: 0.15%
COc1ccc(-c2ccc(NC(=O)c3ccc(C#N)cc3)cc2)cc1CN1CCN(C)CC1 :: 4.24%
COc1ccc(C(=C(C)CC(C)C(=O)O)c2ccccc2)cc1 (stereo unspecified) :: -0.12%

Here is another molecule to look at.
Any idea what inhibition was measured for Clc1ccc(-c2nc(-c3ccncc3)c[nH]2)cc1Cl ?
0.68%

* * *

Molecular target: Hexose transporter 1 (Plasmodium falciparum) (UniProt O97467)
Assay: ST_JUDE_LEISH: Cytotoxicity at 2uM final concentration against transgenic Leishmania Mexicana promastigotes LmPfHT that are glucose transport deficient and complemented with the Plasmodium falciparum hexose transporter. Activity is measured by DNA content using SYBR green in vitro
Type: functional
attribute.measured: inhibition
Answer format reminder: number followed by unit.

The cases that follow already have their inhibition on record.
N#Cc1cccc(C(=O)Nc2ccc(-c3cccc(CN4CCCC4)c3)cc2)c1 :: 6.55%
COc1ccc(-c2ccc(Nc3cccc(S(=O)(=O)CCN4CCC(CCN(C)C)CC4)c3)nc2)cn1 :: -1.68%
Cc1cc(O)c(C(C)C)cc1C1(c2cc(C(C)C)c(O)cc2C)OC(=O)c2ccccc21 :: 6.64%
COc1c(C)[nH]c(C)c(-c2ccc(Oc3cccc(C(F)(F)F)c3)cc2)c1=O :: 10.6%

Next compound, inhibition to be filled in.
Request - read-out inhibition | tested on Hexose transporter 1 (Plasmodium falciparum) (UniProt O97467) | compound N=C(NCCCc1ccccc1)c1cccc(C(=N)NCCCc2ccccc2)n1
-1.1%

* * *

Molecular target: Hexose transporter 1 (Plasmodium falciparum) (UniProt O97467)
Experiment: ST_JUDE_LEISH: Cytotoxicity at 2uM final concentration against transgenic Leishmania Mexicana promastigotes LmPfHT that are glucose transport deficient and complemented with the Plasmodium falciparum hexose transporter. Activity is measured by DNA content using SYBR green in vitro
Assay type: functional
attribute.measured: inhibition (%)
One number for each entry, in %.

Would you mind giving inhibition for every compound in the list below?
1. CN1CCN(c2ccc(-c3cc(-c4cc(F)c(F)c(F)c4)cnc3N)cc2)CC1
2. CCc1cccc2c(C#N)cn(CC(=O)Nc3ccc(OC)cc3)c12
3. CCNc1cc(C(=O)NC(Cc2ccccc2)C(O)CNC(C)(C)CCCC(C)C)c(F)c(N2CCCS2(=O)=O)c1 (centres undefined)
4. CS(=O)(=O)c1ccc(CNCc2ccc(-c3ccc(-c4nc5cc(F)ccc5[nH]4)s3)cc2)cc1
5. NC(=O)c1ccc(NCC(=O)Nc2cccc(-c3cccc(-c4nc5cc(C(F)(F)F)ccc5[nH]4)c3)c2)cc1
6. CC(C)NC(=O)c1cccc(-c2ccc(OCCN3CCCC3c3cc4ccccc4[nH]3)cc2)c1 (centres undefined)

1. 1.8
2. 3.26
3. -1.24
4. 10.9
5. 3.6
6. 3.47

# map each compound to its inhibition
1. COc1cc(NC2=C(c3ccccc3)C(=O)c3ccccc32)ccn1
2. NC1CCN(c2nc(NCCCc3ccc(O)cc3)nc(NCc3cccc4ccccc34)n2)CC1

1. 2.03
2. -3.11

Which inhibition is reported for this compound? [O-][s+]1c(Cl)c(-c2ccc(Cl)cc2)c2ccc(Cl)cc21 (centres undefined)
8.82

* * *

Kindly state inhibition for each of the entries shown.
Molecular target: Glucose transporter (Leishmania mexicana) (UniProt O61059)
Assay: ST_JUDE_LEISH: Cytotoxicity at 2uM final concentration against transgenic Leishmania Mexicana promastigotes LmGT2 that are glucose transport deficient and complemented with the L. Mexicana glucose transporter 2. Activity is measured by DNA content using SYBR green in vitro
Type: functional
One number for each entry, in %.

Worked cases, answers included:
COc1ccc(NC(=O)/C=C/c2ccccc2Cl)cc1OCCN1CCN(c2ccncc2)CC1 :: -1.49
CCCCCCn1c(Sc2ccc(C#N)c([N+](=O)[O-])c2)nnc1-c1ccc(Cl)cc1 :: 2.57
Nc1nc(N)c2c(CCc3ccc4ccccc4c3)cccc2n1 :: -1.66

List the reported inhibition of each molecule below.
1. Cc1cc(-c2ccc(CNCCc3cccs3)cc2)ccc1S(=O)(=O)NCc1ccccc1
2. O=C(NCc1cccc2ccccc12)C(c1cc2ccccc2o1)N1CCN(C(c2ccccc2)c2ccccc2)CC1 (stereo not given)

1. 8.49
2. -2.97

* * *

For each record, write down the corresponding inhibition.
Molecular target: Solute carrier family 2, facilitated glucose transporter member 1 (Homo sapiens)
Experiment: ST_JUDE_LEISH: Cytotoxicity at 2uM final concentration against transgenic Leishmania Mexicana promastigotes LmGLUT1 that are glucose transport deficient and complemented with the human glucose transporter GLUT1. Activity is measured by DNA content using SYBR green in vitro
Type: functional
Give bare numbers, in %.

Below, each entry is followed by its recorded inhibition result.
Cc1cccc2nc(-c3cccc(-c4cccc(NC(=O)Nc5ccc(Cl)cc5)c4)c3)[nH]c12 :: -3.06
Cc1cc(-c2ccc(NC(=O)N3CCc4cc(Cl)c(N5CCN(C)CC5)cc43)cc2)ccc1C#N :: 78.1
C=CCn1c(Sc2ccc(C#N)c([N+](=O)[O-])c2)nnc1-c1ccc(Cl)cc1 :: 5.68

Count: 7. Required value per item: inhibition.
1. COc1cccc(C(=O)NCCc2cccc(Cl)c2)c1OCc1ccccc1
2. CCc1cn2c3c(cc(C(=O)N[C@@H](Cc4ccccc4)[C@H](O)CNC(C)(C)c4cccc(OC)c4)cc13)N(C)S(=O)(=O)C2
3. O=C(Nc1nc2cc(S(=O)(=O)NCc3ccc(Cl)c(Cl)c3)ccc2n1CCCN1CCCC1)c1ccc(Cl)cc1
4. CN(C)CCNC(=O)c1cccc(-c2cnc3ccc(NCc4ccc(Cl)c(Cl)c4)nn23)c1
5. COc1cc(-c2nc(-c3ccc([N+](=O)[O-])cc3)c(-c3ccccc3)[nH]2)cc(OC)c1O
6. COCC(C)n1c(SC(C)C(=O)Nc2cc([N+](=O)[O-])ccc2Cl)nc2ccccc2c1=O (centres undefined)
7. O=[N+]([O-])c1ccc(/C=N/O)nc1

1: 0.04; 2: 1.01; 3: 1.48; 4: 8.3; 5: 3.48; 6: -1.22; 7: 88.1

# return inhibition for each item in the list
1. COc1ccc(CCNCCCCCCNCCc2ccc(Cl)c(Cl)c2)cc1OC
2. COc1ccc2nccc(N3CCC(NCCNS(=O)(=O)c4ccc5c(c4)NC(=O)CS5)C3)c2n1 (centres undefined)
3. CC(C)(C)N1CCC(N(Cc2ccc(-c3ccc(C(F)(F)F)cc3)cc2)C(=O)Cn2c(CCc3cccc(F)c3F)nc(=O)c3cccnc32)CC1
4. O=C(N[C@@H](Cc1ccccc1)C(=O)NCc1cccc(C(F)(F)F)c1)c1ccc(O)c(-c2ccc(Cl)c(Cl)c2)c1
5. Cc1c(F)cc(C(=O)NC2CC2)cc1-c1ccc2c(c1)c(C)nn2S(=O)(=O)c1cccs1
6. CCOc1cc(C(=O)N[C@@H](Cc2ccccc2)[C@H](O)CNCc2cccc(OC)c2)cc(N2CCCCS2(=O)=O)c1
7. O=C(Nc1ccc2c(c1)CCN(C1CCC1)CC2)c1ccc(-n2ccnc2)cn1
8. COc1ccc(NC(=O)/C=C/c2ccccc2Cl)cc1OCCN1CCC(N2CCCCC2)CC1

4.21
-1.11
2.09
3.7
4.6
5.4
1.81
7.74

I have this compound here, NOCCCOc1ccc(Cl)cc1 , and I need its recorded inhibition.
4.86
